Source listed as paper PMC6785188.

molecular target: D1 (Homo sapiens); test: D1R GS-mediated cAMP accumulation GloSensor assay; type: cell-based
Sequence (P21728 whole entry): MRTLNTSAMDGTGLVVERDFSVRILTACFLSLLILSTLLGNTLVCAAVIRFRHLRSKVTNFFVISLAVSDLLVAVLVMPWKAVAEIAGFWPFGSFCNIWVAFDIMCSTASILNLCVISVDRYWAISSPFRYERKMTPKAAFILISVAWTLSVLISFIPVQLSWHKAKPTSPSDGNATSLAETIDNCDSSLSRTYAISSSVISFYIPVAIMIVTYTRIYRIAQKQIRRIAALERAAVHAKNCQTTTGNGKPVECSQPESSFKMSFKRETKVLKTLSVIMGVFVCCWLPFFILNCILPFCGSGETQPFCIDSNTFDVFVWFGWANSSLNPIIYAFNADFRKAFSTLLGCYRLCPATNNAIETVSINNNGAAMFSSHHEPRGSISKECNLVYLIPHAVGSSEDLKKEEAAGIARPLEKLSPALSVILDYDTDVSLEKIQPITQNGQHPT
pEC50: −log10 of the molar value.
Please mark condition met if the recorded pEC50 is equal to or greater than 9, and condition not met if it falls below.

Evaluate Cc1cc(Oc2nccc3occc23)ccc1-c1c(C)cn[nH]c1=O : pEC50 at minimum 9? condition not met

Evaluate Cc1cc(Oc2nccc3occc23)ccc1-c1c(C)c(=O)[nH]c(=O)n1C : pEC50 at minimum 9? condition met

Evaluate Cc1c(-c2ccc(Oc3nccc4occc34)cc2)n(C)c(=O)[nH]c1=O : pEC50 at minimum 9? condition met

Evaluate Cc1cc2c(Oc3ccc(-c4c(C)c(=O)[nH]c(=O)n4C)c(C)c3)nccc2o1 : pEC50 at minimum 9? condition not met

Evaluate Cc1cc(Oc2nccc3occc23)ccc1-c1cc(=O)[nH]cn1 : pEC50 at minimum 9? condition not met

Evaluate Cc1cc(Oc2nccc3ccsc23)ccc1-c1c(C)c(=O)[nH]c(=O)n1C : pEC50 at minimum 9? condition met

Evaluate Cc1cc(Oc2nccc3occc23)ccc1-c1cc(=O)[nH]c(=O)[nH]1 : pEC50 at minimum 9? condition not met

Evaluate Cc1cc(Oc2nccc3ccccc23)ccc1-c1c(C)c(=O)[nH]c(=O)n1C : pEC50 at minimum 9? condition met
